Each entry below carries its recorded KD ratio to GLS3000.
# Tested Target: T1, CD3 epsilon homodimer protein (UniProt P07766 23-126)
# T1 construct: also called CD3 (CD3 epsilon)
# T1 sequence (P07766 23-126): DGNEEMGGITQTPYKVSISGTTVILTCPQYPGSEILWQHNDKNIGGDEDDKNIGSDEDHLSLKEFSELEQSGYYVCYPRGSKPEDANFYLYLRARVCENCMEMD
# Assay Remarks: SPR, antibody over immobilised CD3e homodimer;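 further: SPR at 25 °C with CD3 epsilon homodimer amine-coupled to a CM4 sensor chip and antibody flowed over as analyte in HBS-EP+ running buffer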
Format: numeric value only, no unit, no commentary.

Worked cases, answers included:
1. CE115HA000/GLS3000 N53G (antibody, IgG1, name in Kabat numbering, V domains shown, one-arm IgG1) VH: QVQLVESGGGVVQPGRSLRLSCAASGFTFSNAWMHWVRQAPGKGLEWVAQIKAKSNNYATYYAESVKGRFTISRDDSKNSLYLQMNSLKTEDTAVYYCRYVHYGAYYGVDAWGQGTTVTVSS VL: DIVMTQSPLSLPVTPGEPASISCRSSQSLVHSNRNTYLHWYQQKPGQAPRLLIYKVSGRFSGVPDRFSGSGSGTDFTLKISRVEAEDVGVYYCGQGTQVPYTFGQGTKLEIK = 1.33
2. CE115HA000/GLS3000 V94G (antibody, IgG1, name in Kabat numbering, V domains shown, one-arm IgG1) VH: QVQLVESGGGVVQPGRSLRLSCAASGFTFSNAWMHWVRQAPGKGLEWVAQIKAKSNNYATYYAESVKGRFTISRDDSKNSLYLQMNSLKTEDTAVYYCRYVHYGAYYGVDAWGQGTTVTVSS VL: DIVMTQSPLSLPVTPGEPASISCRSSQSLVHSNRNTYLHWYQQKPGQAPRLLIYKVSNRFSGVPDRFSGSGSGTDFTLKISRVEAEDVGVYYCGQGTQGPYTFGQGTKLEIK = 2.59
3. CE115HA000/GLS3000 S56D (antibody, IgG1, name in Kabat numbering, V domains shown, one-arm IgG1) VH: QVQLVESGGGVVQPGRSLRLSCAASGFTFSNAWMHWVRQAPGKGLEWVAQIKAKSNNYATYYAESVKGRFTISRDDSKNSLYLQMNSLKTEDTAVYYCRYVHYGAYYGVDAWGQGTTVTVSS VL: DIVMTQSPLSLPVTPGEPASISCRSSQSLVHSNRNTYLHWYQQKPGQAPRLLIYKVSNRFDGVPDRFSGSGSGTDFTLKISRVEAEDVGVYYCGQGTQVPYTFGQGTKLEIK = 1.11

Task: Query (binder): CE115HA000/GLS3000 V51P (antibody, IgG1, name in Kabat numbering, V domains shown, one-arm IgG1) VH: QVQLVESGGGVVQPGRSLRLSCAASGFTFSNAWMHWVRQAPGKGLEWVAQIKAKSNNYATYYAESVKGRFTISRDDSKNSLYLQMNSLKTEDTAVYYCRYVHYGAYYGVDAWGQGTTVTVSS VL: DIVMTQSPLSLPVTPGEPASISCRSSQSLVHSNRNTYLHWYQQKPGQAPRLLIYKPSNRFSGVPDRFSGSGSGTDFTLKISRVEAEDVGVYYCGQGTQVPYTFGQGTKLEIK ; field requested: KD ratio to GLS3000
Result: 6

Task: Note, next up: CE115HA000/GLS3000 V94H (antibody, IgG1, name in Kabat numbering, V domains shown, one-arm IgG1) VH: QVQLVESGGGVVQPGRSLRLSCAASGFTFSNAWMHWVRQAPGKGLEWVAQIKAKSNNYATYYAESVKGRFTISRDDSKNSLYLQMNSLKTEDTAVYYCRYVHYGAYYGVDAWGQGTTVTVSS VL: DIVMTQSPLSLPVTPGEPASISCRSSQSLVHSNRNTYLHWYQQKPGQAPRLLIYKVSNRFSGVPDRFSGSGSGTDFTLKISRVEAEDVGVYYCGQGTQHPYTFGQGTKLEIK
Result: 1.16

Task: Note, next up: CE115HA000/GLS3000 N53T (antibody, IgG1, name in Kabat numbering, V domains shown, one-arm IgG1) VH: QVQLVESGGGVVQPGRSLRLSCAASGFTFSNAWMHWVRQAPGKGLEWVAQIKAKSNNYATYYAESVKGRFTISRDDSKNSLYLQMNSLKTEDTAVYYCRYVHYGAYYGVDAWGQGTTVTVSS VL: DIVMTQSPLSLPVTPGEPASISCRSSQSLVHSNRNTYLHWYQQKPGQAPRLLIYKVSTRFSGVPDRFSGSGSGTDFTLKISRVEAEDVGVYYCGQGTQVPYTFGQGTKLEIK
Result: 2.68

Task: Note, next up: CE115HA000/GLS3000 S56W (antibody, IgG1, name in Kabat numbering, V domains shown, one-arm IgG1) VH: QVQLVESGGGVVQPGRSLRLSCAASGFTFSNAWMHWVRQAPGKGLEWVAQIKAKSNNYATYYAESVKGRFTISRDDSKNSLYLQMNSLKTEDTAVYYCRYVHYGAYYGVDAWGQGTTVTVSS VL: DIVMTQSPLSLPVTPGEPASISCRSSQSLVHSNRNTYLHWYQQKPGQAPRLLIYKVSNRFWGVPDRFSGSGSGTDFTLKISRVEAEDVGVYYCGQGTQVPYTFGQGTKLEIK
Result: 1.12

Task: Note, next up: CE115HA000/GLS3000 L33F (antibody, IgG1, name in Kabat numbering, V domains shown, one-arm IgG1) VH: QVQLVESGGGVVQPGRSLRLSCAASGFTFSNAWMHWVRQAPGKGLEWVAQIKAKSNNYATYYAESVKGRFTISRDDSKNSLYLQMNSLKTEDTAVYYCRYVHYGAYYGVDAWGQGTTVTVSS VL: DIVMTQSPLSLPVTPGEPASISCRSSQSLVHSNRNTYFHWYQQKPGQAPRLLIYKVSNRFSGVPDRFSGSGSGTDFTLKISRVEAEDVGVYYCGQGTQVPYTFGQGTKLEIK
Result: 0.65

Task: Note, next up: CE115HA000/GLS3000 S27eW (antibody, IgG1, name in Kabat numbering, V domains shown, one-arm IgG1) VH: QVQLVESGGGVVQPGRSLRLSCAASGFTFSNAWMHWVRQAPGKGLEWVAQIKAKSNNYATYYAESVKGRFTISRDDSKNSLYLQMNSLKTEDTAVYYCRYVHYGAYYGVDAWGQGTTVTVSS VL: DIVMTQSPLSLPVTPGEPASISCRSSQSLVHWNRNTYLHWYQQKPGQAPRLLIYKVSNRFSGVPDRFSGSGSGTDFTLKISRVEAEDVGVYYCGQGTQVPYTFGQGTKLEIK
Result: 1.32

Task: Note, next up: CE115HA000/GLS3000 N53E (antibody, IgG1, name in Kabat numbering, V domains shown, one-arm IgG1) VH: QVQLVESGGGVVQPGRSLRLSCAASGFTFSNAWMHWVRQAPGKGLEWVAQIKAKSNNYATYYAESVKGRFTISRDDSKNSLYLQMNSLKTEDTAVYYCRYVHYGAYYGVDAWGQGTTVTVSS VL: DIVMTQSPLSLPVTPGEPASISCRSSQSLVHSNRNTYLHWYQQKPGQAPRLLIYKVSERFSGVPDRFSGSGSGTDFTLKISRVEAEDVGVYYCGQGTQVPYTFGQGTKLEIK
Result: 2.47
